B1: library; a variant is named by its letters at N, in order (parent)
chain: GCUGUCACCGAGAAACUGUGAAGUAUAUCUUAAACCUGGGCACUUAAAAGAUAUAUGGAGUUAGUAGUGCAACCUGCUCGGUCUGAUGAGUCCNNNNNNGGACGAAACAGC

- Variants of: B1
- test protocol: normalized RNA/DNA level without ligand (relative to sTRSVctl = 100) (log10 (% of sTRSVctl)); HEK293T; ligand: cyclic di-GMP (c-di-GMP-II aptamer); higher = less ribozyme self-cleavage, higher mRNA level
- assay context: reporter: mCherry (pCS4076), ligand present: no
Each record here notes measured normalized RNA/DNA level without ligand (log10).
metric: normalized RNA/DNA level without ligand (log10)

[[record]]
mut = "CGGGCG"
test_value = 1.83

[[record]]
mut = "GUGCUA"
test_value = 1.65

[[record]]
mut = "UACACU"
test_value = 1.71

[[record]]
mut = "UUUCAC"
test_value = 1.73

[[record]]
mut = "AAACUC"
test_value = 1.71

[[record]]
mut = "GAAAUC"
test_value = 1.66

[[record]]
mut = "UGUAGG"
test_value = 1.72

[[record]]
mut = "GCUAUG"
test_value = 1.58

[[record]]
mut = "CAGACA"
test_value = 1.33

[[record]]
mut = "UGUGCG"
test_value = 1.8

[[record]]
mut = "UUUAAU"
test_value = 1.7

[[record]]
mut = "UAUUGG"
test_value = 1.75

[[record]]
mut = "GUAUAC"
test_value = 1.66

[[record]]
mut = "AGGAGA"
test_value = 1.37

[[record]]
mut = "UCAACC"
test_value = 1.78

[[record]]
mut = "CCGACG"
test_value = 1.6

[[record]]
mut = "ACCCAG"
test_value = 1.78

[[record]]
mut = "GCUAGC"
test_value = 1.7

[[record]]
mut = "CACGAG"
test_value = 1.63

